- testedTarget: Human UII receptor, 6D9 human rhabdomyosarcoma cells (Homo sapiens)
- Construct: 6D9: isolated by dilution subcloning of RMS13 cells, ATCC® Number: CRL-2061
- Sequence (Q9UKP6 whole entry): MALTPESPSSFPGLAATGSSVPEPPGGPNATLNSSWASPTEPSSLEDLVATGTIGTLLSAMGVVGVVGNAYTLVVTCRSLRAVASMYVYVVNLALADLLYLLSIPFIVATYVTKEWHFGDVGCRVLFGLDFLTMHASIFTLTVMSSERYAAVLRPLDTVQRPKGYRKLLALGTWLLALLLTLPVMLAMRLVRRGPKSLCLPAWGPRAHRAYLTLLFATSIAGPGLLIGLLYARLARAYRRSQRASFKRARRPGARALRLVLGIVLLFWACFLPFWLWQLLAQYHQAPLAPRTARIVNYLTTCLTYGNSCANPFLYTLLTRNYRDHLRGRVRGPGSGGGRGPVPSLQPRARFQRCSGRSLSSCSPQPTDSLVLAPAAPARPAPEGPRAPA
- assayExplanation: Human UII Calcium Mobilization Assay
- runConditions: average value, FLIPR TETRA, read-out: Human UII Ca^+ Mobilization Average IC50
measureName: IC50 (nM)

I. COc1ccc([C@@H](CCNS(=O)(=O)Cc2ccccc2)N2C(=O)c3cccc(N4CCN([C@H](C)c5ccccc5)CC4)c3C2=O)cc1OC [Cpd 222]
II. COc1ccc([C@@H](CCCNC(=O)COC(C)(C)C)N2C(=O)c3cccc(N4CCN([C@H](C)c5ccccc5)CC4)c3C2=O)cc1OC [Cpd 213]
III. CCN1CCN(c2cccc3c2C(=O)N([C@H](CCCOS(=O)(=O)c2cccs2)c2ccc(OC)c(OC)c2)C3=O)CC1 [Cpd 208]
IV. COc1ccc([C@@H](CCCNC(=O)c2c(C)noc2C)N2C(=O)c3cccc(N4CCN([C@H](C)c5ccccc5)CC4)c3C2=O)cc1OC [Cpd 164]
IN: Order each entry by recorded IC50, climbing from the minimum. Answer format: the labels, in the requested order.
OUT: IV, II, I, III
(IV: 300 nM, II: 730 nM, I: 1500 nM, III: 4500 nM)
